# Protocol Details: Rat pharmacokinetics: plasma 4-OH-IF and chloroacetaldehyde after i.v. IF, with P450 inducer/inhibitor pretreatment
# Condition Label: plasma, IF 100 mg kg-1 i.v.; PB80+TAO group (TAO 500 mg kg-1 2 h before IF), n=3
Endpoint Label: Cmax
Provide a numeric answer, followed by its unit.

Incoming: What value of Cmax has been recorded for this entry: "O=CCCl"
Outgoing: 172 µM
